Consider the following compounds; for each one, report its inhibition.
target: Platelet-derived growth factor receptor beta (Homo sapiens) (UniProt P09619); details: at 0.1 µM;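 further: reported value is the mean percent inhibition of the kinase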
Sequence (P09619 whole entry): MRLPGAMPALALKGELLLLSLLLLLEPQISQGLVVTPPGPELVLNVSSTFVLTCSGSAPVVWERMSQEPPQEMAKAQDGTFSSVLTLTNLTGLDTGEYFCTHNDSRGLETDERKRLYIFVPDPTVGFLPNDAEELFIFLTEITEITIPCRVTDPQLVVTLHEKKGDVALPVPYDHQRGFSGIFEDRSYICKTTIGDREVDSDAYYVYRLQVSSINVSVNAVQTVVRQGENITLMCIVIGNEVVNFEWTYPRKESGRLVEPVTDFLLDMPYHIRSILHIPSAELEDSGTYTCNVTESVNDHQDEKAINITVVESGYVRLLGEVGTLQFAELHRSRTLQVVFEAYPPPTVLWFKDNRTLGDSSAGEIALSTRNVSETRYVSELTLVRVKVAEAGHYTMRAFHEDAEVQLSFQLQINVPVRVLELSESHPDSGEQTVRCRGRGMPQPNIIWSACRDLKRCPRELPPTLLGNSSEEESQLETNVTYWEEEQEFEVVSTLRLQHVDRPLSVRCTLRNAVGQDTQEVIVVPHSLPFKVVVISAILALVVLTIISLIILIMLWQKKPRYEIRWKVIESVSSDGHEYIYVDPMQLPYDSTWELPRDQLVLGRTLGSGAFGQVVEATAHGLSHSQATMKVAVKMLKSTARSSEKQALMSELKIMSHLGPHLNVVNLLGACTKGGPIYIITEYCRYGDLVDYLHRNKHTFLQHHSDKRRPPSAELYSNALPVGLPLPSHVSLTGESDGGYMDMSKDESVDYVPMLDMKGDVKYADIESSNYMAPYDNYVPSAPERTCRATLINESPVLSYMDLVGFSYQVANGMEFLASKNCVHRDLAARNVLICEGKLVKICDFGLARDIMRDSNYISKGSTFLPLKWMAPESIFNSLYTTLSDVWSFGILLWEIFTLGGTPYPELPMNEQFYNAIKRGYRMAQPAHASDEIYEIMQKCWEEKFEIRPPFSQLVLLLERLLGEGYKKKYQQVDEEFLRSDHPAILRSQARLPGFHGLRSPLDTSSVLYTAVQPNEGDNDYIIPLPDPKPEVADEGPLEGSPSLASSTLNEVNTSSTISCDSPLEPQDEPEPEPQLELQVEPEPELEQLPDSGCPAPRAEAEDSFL
Quick note: give the figure in %, leave out the unit.

Could you tell me which inhibition is on file for Nc1nc(-c2ccc3c(c2)C(=Cc2cc(Br)c(O)c(Br)c2)C(=O)N3)cs1 ?
1.75

Could you tell me which inhibition is on file for Nc1ncnc2occ(-c3ccc(NC(=O)Nc4cc(C(F)(F)F)cc(C(F)(F)F)c4)cc3)c12 ?
67.8

Could you tell me which inhibition is on file for CC(C)=Cc1cccc2c1/C(=N/Nc1ccc(S(N)(=O)=O)cc1)C(=O)N2 ?
17.4
